target: full length CAMKK1 (CAMKK1-FL) (Homo sapiens)
assayRemarks: IC50 determination by TR-FRET enzymatic assay with CAMKK1-FL in the presence of Ca2+/calmodulin
pIC50: −log10 of the molar value.
measuredQuantity: pIC50

CC1(COc2ccc3c(c2)ncn3-c2ccc3cccc(N4CCC(N)CC4)c3n2)COC1    6.82
COc1cc(N2CCC(N3CCN(C)CC3)CC2)ccc1Nc1ncc(Cl)c(Nc2ccccc2P(C)(C)=O)n1    7.05
COCCOc1ccc2c(c1)ncn2-c1ccc2cccc(N3CCC(N)CC3)c2n1    7.00
CCS(=O)(=O)Nc1ccc2c(c1)/C(=C(/Nc1ccc(CN3CCCCC3)cc1)c1ccccc1)C(=O)N2    6.97

* * *

target: CAMKK1 kinase domain (CAMKK1-KD, Gln124-Lys411) (Homo sapiens, UniProt Q8N5S9)
Construct: The kinase domain (Gln124 to Lys411) was amplified using the primers; 6xHis (TEV-cleavable) (N, cleaved yes); made in house; host or cells: Escherichia coli BL21(DE3)-R3 co-expressing λ-phosphatase
assayRemarks: Differential scanning fluorimetry (DSF) screen of a kinase inhibitor library against CAMKK1-KD
Type: binding
conditionNotes: DSF, 1 μM CAMKK1-KD, compound 10 µM; supplement
measuredQuantity: Mean ΔTm (°C)

O=C1NC(=O)C(c2ccccc2[N+](=O)[O-])=C1Nc1ccc(O)c(Cl)c1    2.7
CN(c1ncccc1CNc1nc(Nc2ccc3c(c2)CC(=O)N3)ncc1C(F)(F)F)S(C)(=O)=O [PF-00562271]    5.2
C=CC(=O)Nc1cccc(Nc2nc(Nc3ccc(NC4CN(CCF)C4)cc3OC)ncc2C(F)(F)F)c1    4.4
Cc1[nH]nc2ccc(-c3cncc(OC[C@@H](N)Cc4ccccc4)c3)cc12    5.7
O=C1Nc2cc(Br)ccc2/C1=C1/Nc2ccccc2/C1=N\O    2.9

1. O=C(NCc1cccc(O)c1)Nc1nc(-c2ccncc2)cs1
2. O=C1NCCc2[nH]c(-c3ccncc3)cc21
3. COc1cc2c(Nc3ccc(NC(=O)c4ccccc4)cc3)ncnc2cc1OCCCN1CCOCC1
Input line: Sort by Mean ΔTm (°C), descending. # list labels per requested ordering
Output line: 1, 2, 3

a. COc1cc2nccc(Oc3ccc(NC(=O)C4(C(=O)Nc5ccc(F)cc5)CC4)cc3)c2cc1OC [Cabozantinib (XL184), Cabozantinib]
b. CN1CCN(c2ccc3nc(-c4c(N)c5c(F)cccc5[nH]c4=O)[nH]c3c2)CC1
Input line: Parameter metric = Mean ΔTm (°C). Return the lower-valued option from a and b . Reply briefly: the label of your chosen item.
Output line: b

* * *

target: CAMKK1 kinase domain (CAMKK1-KD, Gln124-Lys411) (Homo sapiens, UniProt Q8N5S9)
Construct: The kinase domain (Gln124 to Lys411) was amplified using the primers; 6xHis (TEV-cleavable) (N, cleaved yes); made in house; host or cells: Escherichia coli BL21(DE3)-R3 co-expressing λ-phosphatase
assayRemarks: Differential scanning fluorimetry (DSF) screen of a kinase inhibitor library against CAMKK1-KD
Format: binding
conditionNotes: DSF, 1 μM CAMKK1-KD, compound 10 µM; supplement; read-out: Mean ΔTm (°C)
measuredQuantity: ΔTm at 10 µM (°C)

Cc1ncc(-c2ccnc(Nc3ccc(S(C)(=O)=O)cc3)n2)n1C(C)C [AZD5438]    3.4

1. Cc1nc(N)sc1-c1ccnc(Nc2ccc(N3CCOCC3)cc2)n1 [CYC116]
2. COc1ccc(Cl)c(Nc2nc3ccccc3nc2NS(=O)(=O)c2cccc(NC(=O)C(C)(C)N)c2)c1 [XL147]
Input line: Please state the entry with greater ΔTm at 10 µM among 1 and 2 . Answer format: the label of the selected item.
Output line: 2
(2: 4.1 °C, 1: 2.7 °C)

* * *

Below are Kd values measured for CAMKK1 kinase domain (CAMKK1-KD) (Homo sapiens, UniProt Q8N5S9).
measuredQuantity: Kd (nM)

The cases that follow already have their Kd on record.
COc1cc(N2CCC(N3CCN(C)CC3)CC2)ccc1Nc1ncc(Cl)c(Nc2ccccc2P(C)(C)=O)n1 [AP26113]    45
CCS(=O)(=O)Nc1ccc2c(c1)/C(=C(/Nc1ccc(CN3CCCCC3)cc1)c1ccccc1)C(=O)N2 [Hesperadin]    26

I. COCCOc1ccc2c(c1)ncn2-c1ccc2cccc(N3CCC(N)CC3)c2n1 [CP-673451]
II. CC1(COc2ccc3c(c2)ncn3-c2ccc3cccc(N4CCC(N)CC4)c3n2)COC1 [Crenolanib (CP-868596), Crenolanib]
Input line: Of I and II , whose reported Kd is numerically smaller? Answer by quoting the chosen item's label.
Output line: II
(II: 4 nM, I: 7 nM)

* * *

target: CAMKK1 kinase domain (CAMKK1-KD, Gln124-Lys411) (Homo sapiens)
Construct: The kinase domain (Gln124 to Lys411) was amplified using the primers; 6xHis (TEV-cleavable) (N, cleaved yes); made in house; host or cells: Escherichia coli BL21(DE3)-R3 co-expressing λ-phosphatase
assayRemarks: Differential scanning fluorimetry (DSF) screen of a kinase inhibitor library against CAMKK1-KD
Type: binding
conditionNotes: DSF, 1 μM CAMKK1-KD, compound 10 µM; supplement; read-out: Mean ΔTm (°C)
measuredQuantity: ΔTm at 10 µM (°C)

Use the examples below as a reference point.
Cc1cc(Nc2ncc(Cl)c(Nc3ccccc3S(=O)(=O)C(C)C)n2)c(OC(C)C)cc1C1CCNCC1    3.9
CN(C)C/C=C/C(=O)Nc1cc2c(Nc3ccc(F)c(Cl)c3)ncnc2cc1O[C@H]1CCOC1    3.4

1. CC(C)CC(=O)Nc1[nH]nc2c1CN(C(=O)C1CCN(C)CC1)C2(C)C
2. Cc1cc(Nc2cc(CN3CCOCC3)c3nc(C)c(Cc4ccc(Cl)cc4F)n3n2)n[nH]1
Input line: // returns 1 or 2 , whichever has the lower ΔTm at 10 µM The response must carry the label of the picked entry.
Output line: 1

* * *

target: CAMKK1 kinase domain (CAMKK1-KD, Gln124-Lys411) (Homo sapiens, UniProt Q8N5S9)
Construct: The kinase domain (Gln124 to Lys411) was amplified using the primers; 6xHis (TEV-cleavable) (N, cleaved yes); made in house; host or cells: Escherichia coli BL21(DE3)-R3 co-expressing λ-phosphatase
assayRemarks: Differential scanning fluorimetry (DSF) screen of a kinase inhibitor library against CAMKK1-KD
Assay type: binding
conditionNotes: DSF, 1 μM CAMKK1-KD, compound 10 µM; mean and standard error from triplicate measurements; read-out: ΔTm (°C) CAMKK1
measuredQuantity: ΔTm at 10 µM (°C)

Worked cases, answers included:
CCS(=O)(=O)Nc1ccc2c(c1)/C(=C(/Nc1ccc(CN3CCCCC3)cc1)c1ccccc1)C(=O)N2    7
COCCOc1ccc2c(c1)ncn2-c1ccc2cccc(N3CCC(N)CC3)c2n1    14.4
COc1cc(N2CCC(N3CCN(C)CC3)CC2)ccc1Nc1ncc(Cl)c(Nc2ccccc2P(C)(C)=O)n1    8.2

A. CC[C@@H]1C(=O)N(C)c2cnc(Nc3ccc(C(=O)N[C@H]4CC[C@H](N5CCN(CC6CC6)CC5)CC4)cc3OC)nc2N1C(C)C
B. O=C(O)c1ccc(-c2c[nH]c3ncc(-c4ccccc4)cc23)cc1C1CCCC1
Input line: Of A and B , which shows the smaller ΔTm at 10 µM value? Pick one; state its label.
Output line: A
(A: 7.7 °C, B: 16.1 °C)

1. C1=C/COCc2cc(ccc2OCCN2CCCC2)Nc2nccc(n2)-c2cccc(c2)COC/1 [Pacritinib (SB1518), Pacritinib]
2. COc1cc2nccc(Oc3ccc(NC(=O)Nc4cc(C)on4)c(Cl)c3)c2cc1OC
3. CC1(COc2ccc3c(c2)ncn3-c2ccc3cccc(N4CCC(N)CC4)c3n2)COC1
Input line: Thanks in advance: please rank these 3 entries by ΔTm at 10 µM, highest to lowest. Answer format: the labels, in the requested order.
Output line: 3, 1, 2

* * *

target: CAMKK1 kinase domain (CAMKK1-KD, Gln124-Lys411) (Homo sapiens, UniProt Q8N5S9)
Construct: The kinase domain (Gln124 to Lys411) was amplified using the primers; 6xHis (TEV-cleavable) (N, cleaved yes); made in house; host or cells: Escherichia coli BL21(DE3)-R3 co-expressing λ-phosphatase
assayRemarks: Differential scanning fluorimetry (DSF) screen of a kinase inhibitor library against CAMKK1-KD
Assay type: binding
conditionNotes: DSF, 1 μM CAMKK1-KD, compound 10 µM; supplement; read-out: Mean ΔTm (°C)
measuredQuantity: ΔTm at 10 µM (°C)

Known ΔTm at 10 µM results, listed for orientation:
CN1CCN(c2ccc3nc(-c4c(N)c5c(F)cccc5[nH]c4=O)[nH]c3c2)CC1    5.7
Cc1[nH]c(/C=C2\C(=O)Nc3ccccc32)c(C)c1CCC(=O)O [TSU-68 (SU6668)]    4.9
NC(=O)Nc1cc(-c2cccc(F)c2)sc1C(=O)N[C@H]1CCCNC1    3.6
CN1CCN(C2CCN(C(=O)Nc3cc(Oc4ccc(NC(=O)C5(C(=O)Nc6ccc(F)cc6)CC5)c(F)c4)ccn3)CC2)CC1 [Golvatinib (E7050), Golvatinib]    5.5
O=C(Nc1c[nH]nc1-c1nc2ccc(CN3CCOCC3)cc2[nH]1)NC1CC1    5.6

I. CCS(=O)(=O)c1cccc(-c2cc(C(=O)NC3CCN(C)CC3)c(C)c3[nH]c4ncc(C)cc4c23)c1
II. Cc1cc(Nc2cc(N3CCN(C)CC3)nc(Sc3ccc(NC(=O)C4CC4)cc3)n2)[nH]n1
Input line: Of I and II , which shows the smaller ΔTm at 10 µM value? Choose, then provide that item's label.
Output line: II
(II: 3.4 °C, I: 5 °C)

Data credit: paper PMC6172212
